The measured values listed here are drawn from paper PMC9482650.

- system-name: GRIP2_7, Q9C0E4
- Sequence (Q9C0E4 934-1023): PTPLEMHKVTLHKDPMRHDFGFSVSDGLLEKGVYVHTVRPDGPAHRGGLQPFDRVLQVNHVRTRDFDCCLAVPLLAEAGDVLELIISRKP
- run-description: holdup assay
- Design: key: below the threshold = too weak to quantify, mostly under pKd 3.1 to 4
- assay-context: plain residues with an end cap or a label only (N-terminal biotin on a linker: ttds)
readout-type: pKd

binder="VDFPPKESSL [ACVR2A, P27037]" test_value="below the threshold"
binder="FHPLGADSQV [SLC2A1, P11166]" test_value="below the threshold"
binder="RLPKIKETTV [FRMPD4, Q14CM0]" test_value="below the threshold"
